- systemUnderTest: MDM2 (Homo sapiens, UniProt Q00987)
- Sequence (Q00987 whole entry): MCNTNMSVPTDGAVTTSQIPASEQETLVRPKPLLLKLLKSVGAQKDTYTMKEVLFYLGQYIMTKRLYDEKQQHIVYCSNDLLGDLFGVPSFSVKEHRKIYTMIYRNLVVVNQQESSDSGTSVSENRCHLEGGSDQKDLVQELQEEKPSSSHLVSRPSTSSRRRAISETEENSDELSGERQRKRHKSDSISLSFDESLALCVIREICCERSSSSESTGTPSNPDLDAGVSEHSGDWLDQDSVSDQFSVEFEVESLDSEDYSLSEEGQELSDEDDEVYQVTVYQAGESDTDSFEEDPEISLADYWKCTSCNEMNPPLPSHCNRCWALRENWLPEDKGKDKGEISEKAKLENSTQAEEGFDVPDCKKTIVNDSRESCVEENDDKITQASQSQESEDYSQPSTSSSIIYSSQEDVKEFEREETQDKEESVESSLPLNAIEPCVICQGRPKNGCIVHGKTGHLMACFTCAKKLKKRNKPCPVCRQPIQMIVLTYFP
- assayMethodText: MDM2 binding screen: displacement of fluorescent p53 peptide probe FP53 (fluorescence polarization)
- conditionDescription: Acid 14; replicate; crude macrocycle reactions
Recorded measurements of fraction fluorescent probe displaced, Replicate, one per entry

Known fraction fluorescent probe displaced, Replicate results, listed for orientation:
>>> assayvalue("O=C1CCSSCCNC(=O)[C@H]2CCCN(C2)C(=O)[C@H](Cc2ccccc2)NC(=O)[C@H](CNC(=O)c2ccc(Cl)s2)N1")
-0.03
>>> assayvalue("O=C1CCSSCCNC(=O)C2(CCN(C(=O)c3ccc(Cl)s3)CC2)NC(=O)[C@H](Cc2c[nH]c3ccccc23)NC(=O)CCN1")
0.0465
>>> assayvalue("O=C1CCNC(=O)C2CN(C(=O)c3ccc(Cl)s3)CCN2C(=O)C(Cc2c[nH]c3ccccc23)NC(=O)CCSSCCN1 (stereo not drawn)")
0.10

Request: fraction fluorescent probe displaced, Replicate, test system MDM2 (Homo sapiens, UniProt Q00987), entry O=C(NC1CC2C(=O)NC(Cc3ccccc3)C(=O)N3CCCC(C3)C(=O)NCCSSCCC(=O)N2C1)c1ccc(Cl)s1 (stereo not drawn)
0.10

Request: fraction fluorescent probe displaced, Replicate, test system MDM2 (Homo sapiens, UniProt Q00987), entry O=C1NCCSSCCC(=O)N2CCN(C(=O)c3ccc(Cl)s3)CC2C(=O)NC(Cc2ccccc2)C(=O)NCc2cccc1c2 (mixture of isomers)
0.17

Request: fraction fluorescent probe displaced, Replicate, test system MDM2 (Homo sapiens, UniProt Q00987), entry O=C1NC(Cc2ccccc2)C(=O)NCCSSCCC(=O)N2CC(NC(=O)c3ccc(Cl)s3)CC2C(=O)NCc2cccc1c2 (stereo not drawn)
0.0465

###

- systemUnderTest: MDM2 (Homo sapiens)
- assayMethodText: MDM2 binding screen of Libraries 3 and 4: displacement of fluorescent probe F-M8 at 750 nM macrocycle
- conditionDescription: Panel b, Library 3: 63 scaffolds combinatorially acylated with 15 carboxylic acids at 30 picomole scale; displacement of fluorescent peptide probe; macrocycle 750 nM
- Experimental: The cyclic peptide scaffolds required for Libraries 3 and 4 were synthesized as described for those used in Library 2. Due to the presence of many N-methylated amino acids which are more difficult to couple, 200 mM HOAt was applied together with HATU. The scaffolds were diluted to 2 mM in DMSO, and 15 nL were transferred using acoustic dispensing, followed by 15 nL DMSO containing carboxylic acids (40 mM, 20 equiv.), HBTU (40 mM) and DABCO (40 mM). […]
measuredEndpoint: fraction of fluorescent probe displaced
Please state the value as a number alone, without comment.

>>> assayvalue("O=C1CCSSCCNC(=O)C(Cc2ccc3ccccc3c2)NC(=O)C(CNC(=O)C2CC2c2ccccc2)NC(=O)C2(CC2)CN1 (centres unmarked)")
-0.00844

Looking for the measured fraction of fluorescent probe displaced of CC(Oc1cccc(Cl)c1)C(=O)NC[C@@H]1NC(=O)[C@H]2CCCN(C2)C(=O)CCSSCCNC(=O)[C@H](Cc2c[nH]c3cc(Cl)ccc23)NC1=O (some centres unmarked) , can you help?
0.008

Looking for the measured fraction of fluorescent probe displaced of O=C1CN(CCNC(=O)c2ccc(Cl)s2)C(=O)[C@@H]2CN(CCO2)C(=O)CCSSCCNC(=O)[C@@H](Cc2c[nH]c3ccccc23)N1 , can you help?
-0.012

Looking for the measured fraction of fluorescent probe displaced of O=C1CN(CCNC(=O)c2ccc3ccccc3c2)C(=O)[C@@H]2CN(CCO2)C(=O)CCSSCCNC(=O)[C@H](Cc2c[nH]c3cc(Cl)ccc23)N1 , can you help?
0.00455

Looking for the measured fraction of fluorescent probe displaced of O=C1CCSSCCNC(=O)[C@H](Cc2cccc3ccccc23)NC(=O)CN(CCNC(=O)c2ccc3ccccc3c2)C(=O)C2(CC2)CN1 , can you help?
0.011

###

Recorded measurements of fraction fluorescent probe displaced, Screen, one per entry
- systemUnderTest: MDM2 (Homo sapiens)
- assayMethodText: MDM2 binding screen: displacement of fluorescent p53 peptide probe FP53 (fluorescence polarization)
- conditionDescription: Acid 25; initial screen; crude macrocycle reactions
Numbered stars: 1 amine (or outer) side, 2 acyl side, 3 side chain; on linkers, the order of the positions; unused ones are H or OH. Bridge positions count the residues as written; N and C are the ends. Square brackets hold non-standard residues; d marks the D form. Peptide text beside a SMILES is read from it. * marks the point of attachment. Benzoyl(4-Cl) = O=C(c1ccc(Cl)cc1)*; Cysteamide = C(CS[*:3])N[*:1]; Api = NC1(C(=O)O)CCNCC1; Dap = NC[C@H](N)C(=O)O; Mpa = O=C(O)CCS
Please state the value as a number alone, without comment.

Known fraction fluorescent probe displaced, Screen results, listed for orientation:
>>> assayvalue("O=C(NC[C@@H]1NC(=O)[C@@H]2CCCN2C(=O)CCSSCCNC(=O)[C@H](Cc2ccccc2)NC1=O)c1ccc(Cl)cc1 [X B1 D3 F Acid 25] ([Mpa]P[Dap](Benzoyl(4-Cl))F-Cysteamide; disulfide 1-C)")
0.22
>>> assayvalue("O=C1CCSSCCNC(=O)C2(CCN(C(=O)c3ccc(Cl)cc3)CC2)NC(=O)[C@H](Cc2c[nH]c3ccccc23)NC(=O)c2cccc(c2)CN1")
0.09
>>> assayvalue("O=C1CCSSCCNC(=O)C2(CCN(C(=O)c3ccc(Cl)cc3)CC2)NC(=O)C2CCCN(C2)C(=O)C(Cc2ccccc2)N1 (centres unmarked)")
0.15
>>> assayvalue("O=C1CCNC(=O)[C@H](Cc2c[nH]c3ccccc23)NC(=O)C2(CCN(C(=O)c3ccc(Cl)cc3)CC2)NC(=O)CCSSCCN1")
0.09
>>> assayvalue("O=C1NC2(CCN(C(=O)c3ccc(Cl)cc3)CC2)C(=O)NCCSSCCC(=O)N2CCC[C@H]2C(=O)N[C@H]1Cc1ccccc1 [X B1 F D6 Acid 25] ([Mpa]PF[Api](Benzoyl(4-Cl))-Cysteamide; disulfide 1-C)")
0.09

Looking for the measured fraction fluorescent probe displaced, Screen of O=C1CCSSCCNC(=O)C2CN(C(=O)c3ccc(Cl)cc3)CCN2C(=O)C2CCCN2C(=O)C(Cc2c[nH]c3ccccc23)N1 (centres unmarked) , can you help?
0.19

Looking for the measured fraction fluorescent probe displaced, Screen of O=C1CCSSCCNC(=O)[C@H]2CCCN(C2)C(=O)[C@H](CNC(=O)c2ccc(Cl)cc2)NC(=O)[C@H](Cc2c[nH]c3ccccc23)N1 , can you help?
0.28

Looking for the measured fraction fluorescent probe displaced, Screen of O=C1CCSSCCNC(=O)C2CN(C(=O)c3ccc(Cl)cc3)CCN2C(=O)C(Cc2ccccc2)NC(=O)c2cccc(c2)CN1 (mixture of isomers) , can you help?
-0.00813

Looking for the measured fraction fluorescent probe displaced, Screen of O=C1CCSSCCNC(=O)[C@H](Cc2c[nH]c3ccccc23)NC(=O)[C@@H]2CCCN2C(=O)[C@H](CNC(=O)c2ccc(Cl)cc2)N1 [X D3 B1 W Acid 25] ([Mpa][Dap](Benzoyl(4-Cl))PW-Cysteamide; disulfide 1-C) , can you help?
0.28

Looking for the measured fraction fluorescent probe displaced, Screen of O=C1CCSSCCNC(=O)c2cccc(c2)CNC(=O)C2(CCN(C(=O)c3ccc(Cl)cc3)CC2)NC(=O)C(Cc2ccccc2)N1 (centres unmarked) , can you help?
-0.00813

Looking for the measured fraction fluorescent probe displaced, Screen of O=C1CCSSCCNC(=O)C2(CCN(C(=O)c3ccc(Cl)cc3)CC2)NC(=O)CCNC(=O)[C@H](Cc2ccccc2)N1 , can you help?
-0.00813

###

- systemUnderTest: thrombin (Homo sapiens, UniProt P00734)
- Construct: consists of two polypeptide chains of 36 (light chain) and 259 amino acid
- assayMethodText: Thrombin inhibition screen of crude macrocycle reactions (residual thrombin activity, fluorogenic substrate Z-Gly-Gly-Arg-AMC)
- Assay type: biochemical
- conditionDescription: 10 µM macrocycle concentration; crude reactions, Library 1a-l; scaffold AA1-AA2-AA3 combined with 1-16 or '-'
Numbered stars: 1 amine (or outer) side, 2 acyl side, 3 side chain; on linkers, the order of the positions; unused ones are H or OH. Bridge positions count the residues as written; N and C are the ends. Square brackets hold non-standard residues; d marks the D form. Peptide text beside a SMILES is read from it. * marks the point of attachment. 2Thenoyl(5-Cl) = O=C(c1ccc(Cl)s1)*; Pyrazinecarbonyl = O=C(c1cnccn1)*; Cysteamide = C(CS[*:3])N[*:1]; Orn = NCCC[C@H](N)C(=O)O; Mpa = O=C(O)CCS
measuredEndpoint: percent residual thrombin activity (%)
State the answer as a number, implicitly in %.

Known percent residual thrombin activity results, listed for orientation:
>>> assayvalue("O=C(NCCC[C@@H]1NC(=O)[C@H](CO)NC(=O)[C@@H]2CCCN2C(=O)CCSSCCNC1=O)c1ccc(Cl)s1 [B1-s-D2/14] ([Mpa]PS[Orn](2Thenoyl(5-Cl))-Cysteamide; disulfide 1-C)")
95.3682
>>> assayvalue("NC(=O)CCC1NC(=O)C(CCCCNC(=O)c2cnccn2)NC(=O)CCSSCCNC(=O)C2CCCN2C1=O (centres unmarked) [D1-Q-B1/2] ([Mpa]K(Pyrazinecarbonyl)QP-Cysteamide; disulfide 1-C; configuration not given here)")
104.356
>>> assayvalue("C[C@H]1NC(=O)CCSSCCNC(=O)c2cccc(c2)CNC(=O)[C@H](CCCCNC(=O)c2cnccn2)NC1=O [a-D1-B5/2]")
104.737
>>> assayvalue("COc1ccc(C(=O)NCCC[C@@H]2NC(=O)CCSSCCNC(=O)[C@H](C(C)C)NC(=O)[C@H]3CCCN(C3)C2=O)cn1 [D2-B4-V/10]")
108.833

With those in mind, consider the next compound.
Looking for the measured percent residual thrombin activity of COc1ccc(C(=O)NCCCC[C@@H]2NC(=O)[C@H](Cc3ccc(O)cc3)NC(=O)C3(CC3)CNC(=O)CCSSCCNC2=O)cn1 [B6-Y-D1/10] , can you help?
104.034
